Consider the following compounds and their measured IC50 readings.
study_target: Human Caspase-3 (Homo sapiens)
Sequence (P42574 29-175 limits assumed): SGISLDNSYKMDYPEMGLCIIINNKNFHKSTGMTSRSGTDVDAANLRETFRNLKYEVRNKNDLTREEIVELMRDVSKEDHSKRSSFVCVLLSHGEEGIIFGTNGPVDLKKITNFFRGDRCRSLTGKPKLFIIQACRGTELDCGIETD
Sequence (P42574 176-277 limits assumed): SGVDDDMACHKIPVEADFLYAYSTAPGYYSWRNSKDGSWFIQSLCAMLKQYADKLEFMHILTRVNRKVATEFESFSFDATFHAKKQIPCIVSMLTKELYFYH
measurement_name: IC50

• CCNC(=O)/C=C\C(=O)Nc1cc(=O)[nH]n1C1CCCCCC1 = > 500 µM
• O=C(/C=C/S(=O)(=O)c1ccccc1)Nc1cc(=O)[nH]n1C1CCCCCC1 = > 300 µM

====

Consider the following molecules and their measured kinact/KI readings.
study_target: CVB3 3C protease (Coxsackievirus B3)
Construct: 3C protease of Coxsackie virus B3 consisting of 183 amino-acid residues; made in house; host or cells: E. coli BL21(DE3), plasmid pET-23a(+)
experiment: FRET-based enzyme activity assay (warhead activation / inhibitor kinetics)
Type: biochemical, Coxsackie virus B3
condition_parameters: relative inactivation rate; slope of kobs against inhibitor concentration; read-out: kinact/KI
measurement_name: kinact/KI

- CCOC(=O)/C=C\C(=O)Nc1cc(=O)[nH][nH]1: 11.7 M⁻¹ s⁻¹
- CCOC(=O)[C@H]1O[C@@H]1Cc1c(N)n(C2CCCCCC2)[nH]c1=O: 3.7 M⁻¹ s⁻¹
- O=C(/C=C/S(=O)(=O)c1ccccc1)Nc1cc(=O)[nH]n1C1CCCCCC1: 1010 M⁻¹ s⁻¹
- CCNC(=O)/C=C\C(=O)Nc1cc(=O)[nH]n1C1CCCCCC1: 63 M⁻¹ s⁻¹
- CCOC(=O)/C=C/C(=O)c1c(N)n(-c2ccccc2)[nH]c1=O: 14.7 M⁻¹ s⁻¹
- CCCC(CCC)n1[nH]c(=O)cc1NC(=O)/C=C\C(=O)OCC: 217 M⁻¹ s⁻¹
- CC(C)n1[nH]c(=O)cc1NC(=O)/C=C/S(=O)(=O)c1ccccc1: 542 M⁻¹ s⁻¹

====

study_target: UniProtKB P00742
Sequence (P00742 235-488 limits assumed): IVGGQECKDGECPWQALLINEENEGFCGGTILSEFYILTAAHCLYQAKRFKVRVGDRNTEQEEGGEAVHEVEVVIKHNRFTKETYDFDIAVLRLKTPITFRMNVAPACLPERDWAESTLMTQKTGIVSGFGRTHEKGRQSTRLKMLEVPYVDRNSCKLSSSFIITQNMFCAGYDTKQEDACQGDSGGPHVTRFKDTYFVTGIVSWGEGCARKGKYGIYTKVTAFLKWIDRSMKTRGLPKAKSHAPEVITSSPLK
Sequence (P00742 41-179 partner limits assumed): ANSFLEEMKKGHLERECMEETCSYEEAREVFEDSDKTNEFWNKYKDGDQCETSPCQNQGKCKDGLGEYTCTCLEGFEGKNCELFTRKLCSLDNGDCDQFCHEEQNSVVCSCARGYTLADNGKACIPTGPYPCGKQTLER
pIC50: −log10 of the molar value.
measurement_name: pIC50

• CCNC(=O)/C=C\C(=O)Nc1cc(=O)[nH]n1C1CCCCCC1 = < 3.30
• O=C(/C=C/S(=O)(=O)c1ccccc1)Nc1cc(=O)[nH]n1C1CCCCCC1 = < 3.30

====

CBV 3C protease (Coxsackievirus B3, UniProt P03313): recorded IC50 for assorted molecules
measurement_name: IC50 (µM)

- CCNC(=O)/C=C\C(=O)Nc1cc(=O)[nH]n1C1CCCCCC1: 13
- O=C(/C=C/S(=O)(=O)c1ccccc1)Nc1cc(=O)[nH]n1C1CCCCCC1: 0.4

====

study_target: CVB3 3C protease (Coxsackievirus B3, UniProt P03313)
Construct: 3C protease of Coxsackie virus B3 consisting of 183 amino-acid residues; made in house; host or cells: E. coli BL21(DE3), plasmid pET-23a(+)
experiment: FRET-based enzyme activity assay (warhead activation / inhibitor kinetics)
Type: biochemical, Coxsackie virus B3
measurement_name: inhibition of the protease, in words

- Nc1cc(=O)[nH]n1C1CCCCCC1: virtually inactive
- CCOC(=O)[C@H]1O[C@@H]1C=O [Compound 1, ethyl (2S,3S)-epoxy-4-oxo-butanoate]: virtually inactive
- O=C(NCc1cccc2ccccc12)[C@H]1O[C@@H]1C(=O)Nc1cc(=O)[nH]n1C1CCCCCC1: inactive
- CCOC(=O)[C@H]1O[C@H]1C(=O)Nc1cc(=O)[nH]n1C1CCCCCC1: inactive
- CCOC(=O)/C=C/C(=O)Nc1cc(=O)[nH]n1C1CCCCCC1: inactive

====

study_target: EV-D68 3C protease (Human enterovirus D68)
pIC50: −log10 of the molar value.
measurement_name: pIC50

• O=C(/C=C/S(=O)(=O)c1ccccc1)Nc1cc(=O)[nH]n1C1CCCCCC1 = 6.00

====

study_target: CVB3 3C protease (Coxsackievirus B3, UniProt P03313)
Construct: 3C protease of Coxsackie virus B3 consisting of 183 amino-acid residues; made in house; host or cells: E. coli BL21(DE3), plasmid pET-23a(+)
experiment: FRET-based enzyme activity assay (warhead activation / inhibitor kinetics)
Type: biochemical, Coxsackie virus B3
condition_parameters: read-out: IC50
pIC50: −log10 of the molar value.
Consider the following compounds and their measured pIC50 readings.
measurement_name: pIC50

* CCOC(=O)/C=C/C(=O)Oc1cc(N)n(C2CCCCCC2)n1 | 4.69
* CCOC(=O)[C@H]1O[C@@H]1C(=O)Nc1cc(=O)[nH]n1C1CCCCCC1 | 3.85

====

study_target: CVB3 3C protease (Coxsackievirus B3)
Construct: 3C protease of Coxsackie virus B3 consisting of 183 amino-acid residues; made in house; host or cells: E. coli BL21(DE3), plasmid pET-23a(+)
experiment: FRET-based enzyme activity assay (warhead activation / inhibitor kinetics)
Type: biochemical, Coxsackie virus B3
condition_parameters: after 10 min; read-out: apparent half-maximal inhibitory concentration (IC50)
measurement_name: IC50

• CCOC(=O)[C@H]1O[C@@H]1C=O [Compound 1, ethyl (2S,3S)-epoxy-4-oxo-butanoate] = > 1000 µM

====

pIC50: −log10 of the molar value.
EV-B93 3C protease (Enterovirus B93 (species Enterovirus B)): recorded pIC50 for assorted compounds
measurement_name: pIC50

* O=C(/C=C/S(=O)(=O)c1ccccc1)Nc1cc(=O)[nH]n1C1CCCCCC1 | 6.70
* CCNC(=O)/C=C\C(=O)Nc1cc(=O)[nH]n1C1CCCCCC1 | 5.40

====

study_target: HRV-A49 3C protease (Rhinovirus A49)
measurement_name: IC50 (nM)

* O=C(/C=C/S(=O)(=O)c1ccccc1)Nc1cc(=O)[nH]n1C1CCCCCC1 | 300

====

AiV-1 3C protease (Aichi virus): recorded pIC50 for assorted compounds
pIC50: −log10 of the molar value.
measurement_name: pIC50

* CCNC(=O)/C=C\C(=O)Nc1cc(=O)[nH]n1C1CCCCCC1 | 5.05
* O=C(/C=C/S(=O)(=O)c1ccccc1)Nc1cc(=O)[nH]n1C1CCCCCC1 | 6.30
